Sourced from patent US7745492B2

target: recombinant human P450 1A2 (Homo sapiens); experiment: Recombinant human P450 isoform inhibition, 1A2
Sequence (P05177 whole entry, canonical isoform): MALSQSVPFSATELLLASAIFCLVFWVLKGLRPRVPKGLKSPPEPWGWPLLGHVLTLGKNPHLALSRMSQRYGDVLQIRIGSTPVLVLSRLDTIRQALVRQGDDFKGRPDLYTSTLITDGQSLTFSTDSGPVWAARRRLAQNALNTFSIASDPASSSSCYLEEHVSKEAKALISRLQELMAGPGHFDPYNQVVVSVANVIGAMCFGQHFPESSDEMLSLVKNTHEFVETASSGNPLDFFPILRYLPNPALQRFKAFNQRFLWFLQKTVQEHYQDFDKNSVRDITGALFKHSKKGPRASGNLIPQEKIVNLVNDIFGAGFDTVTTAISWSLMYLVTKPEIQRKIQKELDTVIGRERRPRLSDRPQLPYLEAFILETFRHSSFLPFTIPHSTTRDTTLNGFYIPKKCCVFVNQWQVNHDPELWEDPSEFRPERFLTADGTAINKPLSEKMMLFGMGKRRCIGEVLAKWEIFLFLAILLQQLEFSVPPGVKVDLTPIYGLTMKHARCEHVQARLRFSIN
PARAMETER: IC50

In [3]: df
Out[3]:
                                   compound  parameter  reported
0  CN(C)C[C@H]1CCCC[C@]1(O)c1cccc(C(N)=O)c1 (single isomer, unassigned)       IC50   > 10 µM
